What IC50 was measured for each of the following?
# Tested on: HAP1 MTAP-deleted cell line
# test-description: SDMA in-cell western assay, HAP1 MTAP-deleted
# Format: cell-based
# condition-description: Homo sapiens, HAP1, SDMA in-cell western, HAP1 MTAP-deleted; read-out: HAP1 MTAP deleted IC50

May I ask what IC50 has been recorded for Cc1cc(NC(=O)C(=O)N2C[C@H](C)CC[C@H]2C23CC(C(N)=O)(C2)C3)cnc1N (single isomer, unassigned) ?
> 1 µM

May I ask what IC50 has been recorded for Cc1cc([C@@H]2CC[C@@H](C)CN2C(=O)C(=O)Nc2cncc(C(N)=O)c2)ccc1O (single isomer, unassigned) ?
< 0.1 µM

May I ask what IC50 has been recorded for COc1ncc(NC(=O)C(=O)N2C[C@@H](C)CC[C@@H]2c2ccc(C)nc2)cc1C(N)=O (single isomer, unassigned) ?
> 1 µM
